The reported measurements were obtained from patent US12351580B2.

Entries annotated with measured EC50
Measured Target: hNLRP3 (Homo sapiens, UniProt Q96P20)
Construct: THP-1 cells were purchased from the American Type Culture Collection
Sequence (Q96P20 whole entry): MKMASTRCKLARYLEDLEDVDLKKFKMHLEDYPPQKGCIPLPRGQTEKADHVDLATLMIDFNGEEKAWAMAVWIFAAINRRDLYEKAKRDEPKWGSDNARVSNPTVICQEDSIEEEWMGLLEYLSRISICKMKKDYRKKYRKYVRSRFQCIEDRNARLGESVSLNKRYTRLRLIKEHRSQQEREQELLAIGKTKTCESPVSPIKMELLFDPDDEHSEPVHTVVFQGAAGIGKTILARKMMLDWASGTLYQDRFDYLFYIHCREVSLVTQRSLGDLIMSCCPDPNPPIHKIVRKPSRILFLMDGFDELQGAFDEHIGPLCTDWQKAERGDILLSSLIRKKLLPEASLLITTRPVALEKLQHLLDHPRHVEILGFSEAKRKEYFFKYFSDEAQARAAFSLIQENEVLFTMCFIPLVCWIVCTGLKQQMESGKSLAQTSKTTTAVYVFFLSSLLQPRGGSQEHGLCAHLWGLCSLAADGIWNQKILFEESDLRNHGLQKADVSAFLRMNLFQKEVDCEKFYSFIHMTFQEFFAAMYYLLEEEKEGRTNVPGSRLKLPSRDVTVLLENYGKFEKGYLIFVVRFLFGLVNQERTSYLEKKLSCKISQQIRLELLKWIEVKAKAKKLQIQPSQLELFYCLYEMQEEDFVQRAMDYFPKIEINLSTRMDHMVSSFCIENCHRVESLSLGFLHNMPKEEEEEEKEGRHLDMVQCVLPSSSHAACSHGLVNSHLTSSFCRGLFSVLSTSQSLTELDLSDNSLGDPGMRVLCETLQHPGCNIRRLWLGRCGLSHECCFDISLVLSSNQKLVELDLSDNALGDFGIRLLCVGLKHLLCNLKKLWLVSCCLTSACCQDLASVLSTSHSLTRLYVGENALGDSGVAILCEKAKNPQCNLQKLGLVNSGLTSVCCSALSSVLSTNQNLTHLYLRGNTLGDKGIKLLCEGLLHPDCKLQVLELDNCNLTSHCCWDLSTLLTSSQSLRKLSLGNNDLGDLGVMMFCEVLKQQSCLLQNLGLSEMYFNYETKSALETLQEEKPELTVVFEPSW
Assay Details: Measurement of IL-1β production in PMA-differentiated THP-1 cells (hNLRP3 agonist; ELISA, alternative and hTRF procedures)
Return type: number; implicit unit µM.

# example entries with known answers
* CN(Cc1nc2c(N)nc3cc(-c4cc[nH]n4)ccc3c2[nH]1)C(=O)C1CC1 | 1.69
* COc1ccc(-c2ccc3c(c2)nc(N)c2nc(CN4CCCC4=O)[nH]c23)cc1 [Compound 230] | 4.5
* Nc1nc2cc(-c3cccs3)ccc2c2[nH]c(CN3CCCC3=O)nc12 | 0.24
* CCN(Cc1nc2c(N)nc3cc(-c4ccncc4)ccc3c2[nH]1)C(C)=O | 58
* CCN(Cc1nc2c(N)nc3ccc(Br)cc3c2[nH]1)S(=O)(=O)c1ccc(C)cc1 | 35.9

Per the record, Nc1nc2cc(C3CCCCCC3)ccc2c2[nH]c(CN3CCCC3=O)nc12 has EC50 of 3.3

Per the record, Nc1nc2cc(-c3cccnc3F)ccc2c2[nH]c(CN3CCCC3=O)nc12 has EC50 of 12.3

Per the record, CC(C)(C)OC(=O)N1CCN(Cc2nc3c(N)nc4cc(-c5cccnc5)ccc4c3[nH]2)C(=O)C1 has EC50 of 11.5

----------
Measured Target: hNLRP3 (Homo sapiens, UniProt Q96P20)
Construct: THP-1 cells were purchased from the American Type Culture Collection
Assay Details: Measurement of IL-1β production in PMA-differentiated THP-1 cells (hNLRP3 agonist; ELISA, alternative and hTRF procedures)
Value Kind: pEC50
Reminder that pEC50 means the negative base-10 logarithm of the concentration expressed in mol/L.

- CC(C)C(=O)NCc1nc2c(N)nc3cc(-c4cc[nH]n4)ccc3c2[nH]1: 6.19
- CNCc1nc2c(N)nc3cc(-c4cc[nH]n4)ccc3c2[nH]1: 5.91
- CCN(Cc1nc2c(N)nc3cc(-c4ccn(C)n4)ccc3c2[nH]1)C(=O)OC(C)(C)C: 5.15

Per the record, CCN(Cc1nc2c(N)nc3cc(Br)ccc3c2n1CCCC(=O)N(C)C)C(C)=O has pEC50 of 4.75

Per the record, CCN(Cc1nc2c(N)nc3cc(C4CCCC4)ccc3c2[nH]1)C(C)=O has pEC50 of 6.08

Per the record, CCN(Cc1nc2c(N)nc3cc(-c4cc[nH]n4)ccc3c2[nH]1)C(=O)CN(C)C has pEC50 of 5.44

Per the record, CCNC(=O)N(CC)Cc1nc2c(N)nc3cc(-c4cc[nH]n4)ccc3c2[nH]1 has pEC50 of 5.18

Per the record, CCN(Cc1nc2c(N)nc3cc(-n4cccn4)ccc3c2n1CCO)C(C)=O has pEC50 of 5.21

----------
Measured Target: TLR7 (Homo sapiens)
Construct: host or cells: HEK-Blue cells (human HEK) co-expressing TLR7 and an NF-kB/AP1-inducible SEAP reporter
Sequence (Q9NYK1 27-1049): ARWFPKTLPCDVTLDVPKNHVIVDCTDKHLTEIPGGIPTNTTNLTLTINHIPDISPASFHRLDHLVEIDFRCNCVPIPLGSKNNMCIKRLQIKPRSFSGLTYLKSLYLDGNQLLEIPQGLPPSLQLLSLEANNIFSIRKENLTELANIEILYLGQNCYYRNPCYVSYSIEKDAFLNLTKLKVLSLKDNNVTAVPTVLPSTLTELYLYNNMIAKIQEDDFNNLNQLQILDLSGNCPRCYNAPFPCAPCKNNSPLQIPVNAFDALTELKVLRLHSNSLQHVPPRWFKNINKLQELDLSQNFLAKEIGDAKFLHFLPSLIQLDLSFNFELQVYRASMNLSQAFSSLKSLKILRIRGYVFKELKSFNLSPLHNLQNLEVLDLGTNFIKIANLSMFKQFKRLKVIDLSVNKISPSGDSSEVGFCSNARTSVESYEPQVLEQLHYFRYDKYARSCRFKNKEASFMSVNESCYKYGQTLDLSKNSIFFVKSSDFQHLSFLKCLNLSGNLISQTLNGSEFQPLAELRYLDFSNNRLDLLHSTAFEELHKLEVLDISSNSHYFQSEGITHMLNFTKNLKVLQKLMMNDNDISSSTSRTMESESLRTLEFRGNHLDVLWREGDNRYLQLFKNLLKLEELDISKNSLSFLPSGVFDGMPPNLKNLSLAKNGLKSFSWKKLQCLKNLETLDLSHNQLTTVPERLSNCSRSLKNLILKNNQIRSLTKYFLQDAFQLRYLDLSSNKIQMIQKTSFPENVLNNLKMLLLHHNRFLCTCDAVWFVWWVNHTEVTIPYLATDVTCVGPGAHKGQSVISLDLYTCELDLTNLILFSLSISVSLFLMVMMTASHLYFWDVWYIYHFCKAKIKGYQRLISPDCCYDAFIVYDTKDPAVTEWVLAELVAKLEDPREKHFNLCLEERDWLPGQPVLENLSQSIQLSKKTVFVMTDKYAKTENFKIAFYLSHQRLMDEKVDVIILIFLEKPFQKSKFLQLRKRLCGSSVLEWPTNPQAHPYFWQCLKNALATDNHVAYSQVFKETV
Assay Details: In vitro human TLR7 binding reporter assay (HEK-Blue, NF-kB/AP1-inducible SEAP)
Format: cell-based
Experimental Parameters: activity range symbols
pEC50: −log10 of the molar value.
Entries annotated with measured pEC50

# example entries with known answers
• CCN(Cc1nc2c(N)nc3cc(-c4cc[nH]n4)ccc3c2[nH]1)S(=O)(=O)N(C)C = < 4.00
• COc1ccc(Cn2c(Cn3cnccc3=O)nc3c(N)nc4cc(-c5cc[nH]n5)ccc4c32)cc1 = < 4.00
• CCN(Cc1nc2c(N)nc3cc(-c4cc[nH]n4)ccc3c2[nH]1)C(=O)c1ccccn1 = < 4.00
• Nc1nc2cc(Br)ccc2c2[nH]c(CN3CCCC3=O)nc12 = 4.00 to 4.70
• N#Cc1ccc(-c2ccc3c(c2)nc(N)c2nc(CN4CCCC4=O)[nH]c23)cn1 = < 4.00
• CCN(Cc1nc2c(N)nc3cc(-c4cccnc4)ccc3c2[nH]1)C(C)=O = < 4.00
• CCN(Cc1nc2c(N)nc3cc(-n4cccn4)ccc3c2n1CCO)C(C)=O = < 4.00
• CCNCc1nc2c(N)nc3cc(-c4cccs4)ccc3c2n1CC = < 4.00
• CCC(=O)N(C)Cc1nc2c(N)nc3cc(-c4cc[nH]n4)ccc3c2[nH]1 = < 4.00
• CCN(Cc1nc2c(N)nc3cc(-c4cc[nH]n4)ccc3c2[nH]1)S(C)(=O)=O = < 4.00

Attention now shifts to the item below.
Per the record, CCNCc1nc2c(N)nc3cc(-c4ncc[nH]4)ccc3c2[nH]1 has pEC50 of < 4.00
